assay: duplex melting temperature (HRM, EvaGreen); higher = more stable duplex; conditions: duplex concentration 5 µM; backbone: PS-PS (both strands fully phosphorothioate)
Below is a list of entries, each paired with its recorded duplex melting temperature value.
Report only the number, with the unit °C understood.

Below, each entry is followed by its recorded duplex melting temperature result.
{"input_sequence": "GTGAAACAATGCTGTAG", "duplex melting temperature / °C": 48.7}
{"input_sequence": "GAACTGCCACTACCAA", "duplex melting temperature / °C": 54.6}
{"input_sequence": "GGACGGCGTT", "duplex melting temperature / °C": 47.6}
{"input_sequence": "GATTGTATCATCGACATCACACTACC", "duplex melting temperature / °C": 59.8}
{"input_sequence": "CCGCTCAGAGTAGAGA", "duplex melting temperature / °C": 54.8}

We now examine a further sequence.
What value of duplex melting temperature has been reported for the following sequence? TTGAAAACCCATGTGC
49.5

These data points were gathered from the supplement of paper PMC9116672.
